Taken from patent US12570638B2.

- testMethodNotes: Caco-2 Permeability Assay
- Format: in vitro ADME
- recordedConditions: human, Caco-2, pH 7.4, apical to basolateral, read-out: Caco2 Papp (AB)
- Description: Preparation of Caco-2 Cells: 50 μL and 25 mL of cell culture medium were added to each well of the Transwell insert and reservoir, respectively. The HTS transwell plates were incubated at 37° C., 5% CO2 for 1 hour before cell seeding. […] Data analysis: All calculations were carried out using Microsoft Excel. Peak areas were determined from extracted ion chromatograms. […]
Readings of Papp A→B at 2 h, 1 μM for the listed compounds

Cn1nccc1C(=O)Nc1ccc2nc(-c3ccccc3C(F)(F)F)[nH]c2c1; > 10 ×10⁻⁶ cm/s

Lab note: next compound to report on.
Prompt: What Papp A→B at 2 h, 1 μM value was documented for this compound, Cn1ncnc1C(=O)Nc1ccc2nc(-c3ccccc3C(F)(F)F)[nH]c2c1 ?
Completion: > 10 ×10⁻⁶ cm/s
